test: Human HepG2 cell viability assay in 384 well format
Assay type: toxicity, cell-based
Set-up: dose 125 nL, time 70.5 hour; concentration not given beside the values
assayConditions: HepG2 cells, read-out: Inhibition
Rule: measured cytotoxicity at 70.5 h below 10% gets Met; anything equal to or greater than 10% gets Not met.

* Cc1cnn(C2CN(Cc3nc(C(C)(C)C)no3)C2)c1 | Not met
* O=C(NCC[S+]([O-])c1ccccc1)c1ccc2[nH]c(=O)[nH]c2c1 (configuration not stated) | Met
* CS(=O)(=O)NCc1ccc(C(=O)NCc2ccc3c(c2)CCC3)o1 | Met

I wonder whether "CC(=O)N[C@@H]1CN(Cc2nccn2C)C[C@H]1c1ccc(C)cc1" has cytotoxicity at 70.5 h below 10%. Can you tell? Not met

* * *

test: Human HepG2 cell viability assay in 384 well format
Format: toxicity, cell-based
Design: dose 125 nL, time 70.5 hour; concentration not given beside the values
assayConditions: HepG2 cells, read-out: Inhibition
endpoint: cytotoxicity at 70.5 h (%)
Numbers only, in %.

Known results for compounds:
• Cc1nc(C(C)C)sc1C(=O)NCCn1ccnc1 = -7.02
• Cn1cccc(NC(=O)NCCOCc2ccccc2)c1=O = -13.2
• CCOC(=O)[C@@H]1CN2CCNC[C@@H]2[C@H]1c1ccccc1 = -7.39
• CCN(CC)C(CNS(=O)(=O)c1ccc(C(N)=O)cc1)c1ccco1 (stereo not given) = -0.105
• Cc1ccc(NS(=O)(=O)c2cc(C(=O)O)oc2C)c(Br)c1 = -6.35
• O=C(N1CCC(O)(C(F)(F)F)C1)C1(c2ccc(Cl)cc2)CC1 (stereo not given) = 18.9
• Cn1cc(C[C@H]2[C@@H](O)CCN2C(=O)C2CCC2)cn1 = -1.34
• CCN(CCn1cccn1)Cc1nc(-c2ccc(F)cc2)oc1C = -6.91

Batch request: cytotoxicity at 70.5 h per item, same order as input.
1. c1ccc(NCCn2cc(C3CCCNC3)nn2)cc1 (stereo not given)
2. Cc1nc(CN(Cc2ccccc2)C2CCS(=O)(=O)C2)oc1C (stereo not given)

-3.12
-0.994

* * *

test: Human HepG2 cell viability assay in 384 well format
Assay type: toxicity, cell-based
Set-up: dose 125 nL, time 70.5 hour; concentration not given beside the values
assayConditions: HepG2 cells, read-out: Inhibition
endpoint: cytotoxicity at 70.5 h (%)
Give bare numbers, in %.

Known results for compounds:
* CCn1nc(C)c(NC(=O)c2cc(NC(=O)C3CC3)n(C)n2)c1C | -5.29
* CN(CCc1ccccn1)c1cc(N2CCCCC2)ncn1 | -6.31
* NCCO[C@H]1C[C@@H](O)C12CCN(C(=O)CCOc1ccccc1)CC2 | -0.434
* O=S(=O)(C1CC1)N1CCc2onc(COc3ccccn3)c2C1 | 34.6
* CC(=O)c1ccc(OCC(=O)NC(C)CCc2ccco2)cc1 (configuration not stated) | -18.1
* COc1ccc2c(c1)CCN(CCC(=O)NC1CCCCC1)CC2 | -9.14
* COCCCN1C(=O)CC[C@H]2CN(c3ccnc4ccccc34)CC[C@H]21 | -5.09
* N#CC1=C(N)Nn2c(nnc2-c2ccccc2F)S1 | -36.2

Batch request: cytotoxicity at 70.5 h per item, same order as input.
1. CN(C)c1cc(CNC(=O)c2ccc(F)cc2F)ccn1
2. COCc1nc2c(o1)CN(C(=O)NCc1ccccc1)C2
3. Cc1csc([C@H]2C[C@@H]3CCN(Cc4cnn(C)c4)C[C@H]3O2)n1

[-10.5, -12.9, -7.09]

Batch request: cytotoxicity at 70.5 h per item, same order as input.
1. CCCC(=O)N1CCOC2(COCCN(CC(=O)NC)C2)C1 (configuration not stated)
2. Cc1cc(F)c(S(=O)(=O)N(C)CCn2cccn2)cc1F
3. Cc1ccoc1C(=O)N1CCn2nnc(COc3cccnc3)c2C1

1. -10.5
2. -9.11
3. -11.5

Batch request: cytotoxicity at 70.5 h per item, same order as input.
1. Cc1nsc(N2CCCN(c3ccc(C#N)cn3)CC2)n1
2. CCCc1nc(C(=O)NC(COC)c2ccnn2C)cs1 (configuration not stated)
3. CN(C)CCN(C)C[C@@H]1CN(C(=O)NC2CCCC2)C[C@@H]1CO

1: -0.603; 2: -10.8; 3: -8.45

* * *

Would you mind telling me the reported cytotoxicity at 70.5 h of each entry?
test: Human HepG2 cell viability assay in 384 well format
Assay type: toxicity, cell-based
Set-up: dose 125 nL, time 70.5 hour; concentration not given beside the values
assayConditions: HepG2 cells, read-out: Inhibition

- COCCn1ccc(NC(=O)Nc2ccc(C(N)=O)c(F)c2)n1: 13.6%

Batch request: cytotoxicity at 70.5 h per item, same order as input.
1. CCc1cnccc1C(=O)Nc1ccc(C(N)=O)nc1
2. Cc1nc(NC(=O)N[C@H](CO)c2ccccc2)sc1C
3. CN(Cc1ccc(N(C)C)cc1)C(=O)NCc1nnc2n1CCC2

["-4.18%", "-15.6%", "-5.5%"]

Batch request: cytotoxicity at 70.5 h per item, same order as input.
1. c1cn2c(n1)CN(C1CCOCC1)CC(CN1CCCC1)C2 (stereo not given)
2. Cn1cc(CN2C[C@H]3CCC[C@@]3(COCC3CC3)C2)cn1
3. OC[C@@H](O)CN(CCC(F)(F)F)c1ncc(Br)cn1
4. CCc1cc(NCC(O)CN2CCCC2)ncn1 (stereo not given)
5. Cc1ccccc1C1CCCN1Cc1nc2c(cnn2C)c(=O)[nH]1 (stereo not given)
6. CC(=O)c1ccc(CN2CCCC23CCN(c2ccccn2)CC3)cc1
7. c1coc(CN2CC[C@@H]3O[C@@H](COCC4CCOCC4)CC[C@@H]32)c1
8. CCn1cc(CN(C)S(=O)(=O)N2CCCC2c2ccco2)cn1 (stereo not given)

1: -2.92%; 2: -1.1%; 3: 14.1%; 4: 21.2%; 5: -9.08%; 6: -25.1%; 7: -0.874%; 8: -1.42%

Batch request: cytotoxicity at 70.5 h per item, same order as input.
1. CC(C)C(=O)N1CC[C@@H]2CN(Cc3ccncc3)S(=O)(=O)[C@@H]2CC1
2. Cn1cc(NC(=O)Nc2ccc3c(c2)OCO3)cn1
3. CCc1cc(N(C)CCCO)n2nccc2n1
4. COc1ncccc1CN1C[C@@H]2COC[C@]2(COc2ccccn2)C1
5. CSCC(=O)N1CCc2[nH]nc(-c3ccc4c(c3)OCO4)c2C1
6. Cc1ccccc1CC(=O)N1CCN(C2CCOC2=O)CC1 (stereo not given)

["-3.99%", "-8.14%", "-4.76%", "-20.4%", "0.0699%", "-5.25%"]

Batch request: cytotoxicity at 70.5 h per item, same order as input.
1. CCN1C(=O)[C@]2(CC[C@@H]3CN(S(=O)(=O)CC(C)C)C[C@@H]32)N=C1C
2. CC(=O)N1CCCN(C(=O)NCCCc2cn[nH]c2C)CC1

-12.6%
-2.68%

* * *

test: Human HepG2 cell viability assay in 384 well format
Assay type: toxicity, cell-based
Design: dose 125 nL, time 70.5 hour; concentration not given beside the values
assayConditions: HepG2 cells, read-out: Inhibition
endpoint: cytotoxicity at 70.5 h (%)
One number for each entry, in %.

Known results for compounds:
- Cc1cc(F)c(S(=O)(=O)NCC(C)(C)N)cc1F: -10.9
- CCOc1cc(CNC(=O)NCc2nc(C)c(C)s2)ccn1: -5.57
- CC(c1nc(C2CC2)no1)N1CCN(CCn2ccccc2=O)CC1 (centres undefined): -4.93
- COc1ccc(C2(c3nc(-c4cnn(C)c4)no3)CCOCC2)cc1: -3.48
- O=S(=O)(c1ccc(Cl)cc1)N1C[C@@H]2CCN[C@@H]2C1: -6.26

Batch request: cytotoxicity at 70.5 h per item, same order as input.
1. COc1cc(Cl)ccc1C(=O)N1CCCC(n2nc(C)nc2C)C1 (centres undefined)
2. O=C(CCN1C(=O)CC2(CCCC2)C1=O)NCCc1nccs1

-0.226
-22.6

Batch request: cytotoxicity at 70.5 h per item, same order as input.
1. Cc1cnc2cc(C3CCN(C(=O)c4ccncc4)CC3)[nH]c2n1
2. Cn1ncc2c(=O)[nH]c(CN3CCCC3CC3CCCCC3)nc21 (centres undefined)

1: -12.8; 2: -9.61

* * *

test: Human HepG2 cell viability assay in 384 well format
Assay type: toxicity, cell-based
Set-up: dose 125 nL, time 70.5 hour; concentration not given beside the values
assayConditions: HepG2 cells, read-out: Inhibition
Would you mind telling me the reported cytotoxicity at 70.5 h of each entry?
One number for each entry, in %.

Known results for molecules:
• COC1CCN(Cc2csc(C(C)C)n2)CC1 = -5.9
• CCn1nc2c(cc1=O)CN(Cc1nc3ccccc3o1)CC2 = -9.68
• O=C(CC1CC1)N[C@@H]1CN(Cc2ccc(F)cc2)C[C@@H]2CCCO[C@@H]21 = -3.12
• COc1ccc(CN2CCOCC3(CCN(C4CCOCC4)C3)C2)cc1 (centres undefined) = -5.87
• CCC(CC)C(=O)N1CCN(Cc2cc(-c3ccncc3)nn2C)CC1 = 1.08
• c1csc(-c2nnc(CSCCN3CCOCC3)o2)c1 = 12.2
• CS(=O)(=O)c1cnc(C2CCCC2)nc1C1CCCNC1 (centres undefined) = 1.49
• CNC(=O)C1CCCN(c2nc(-c3ccco3)nc3c2CCNCC3)C1 (centres undefined) = -4.06
• CS(=O)(=O)N[C@@H]1CCO[C@]2(CCN(CC3CCOCC3)C2)C1 = -5.05
• c1cnc(NCc2cncc3c2CCN(Cc2cccnc2)C3)nc1 = -5.03

Batch request: cytotoxicity at 70.5 h per item, same order as input.
1. CCc1nccn1C1CCCN(C(=O)c2ccc3nncn3c2)C1 (centres undefined)
2. CC1CN(C)CCN1C(=O)c1cccn1Cc1ccncc1 (centres undefined)
3. O=C(NCCCc1ccco1)c1cnc(N2CCOCC2)nc1
4. CCNC(=O)NCc1ccccc1NS(=O)(=O)c1ccccc1

[-6.04, -0.0265, -18.7, -10.5]
